Recorded values, source paper PMC6001238.

Test system: S. aureus VRSA
Assay: MIC, broth microdilution, vancomycin-resistant S. aureus (VRSA)
Assay type: cell-based, Staphylococcus aureus
Conditions: VRSA; ratio of MIC of vancomycin and MIC of analogue
In this section we review reported MIC-fold improvement vs. vancomycin values for a set of molecules.
Lab note: jot the number down without any unit.

CNC(CC(C)C)C(=O)NC1C(=O)NC(CC(N)=O)C(=O)NC2C(=O)NC3C(=O)NC(C(=O)NC(C(=O)NCC(=O)Nc4ccc(-c5ccc(C(C)=O)cc5)cc4)c4cc(O)cc(O)c4-c4cc3ccc4O)C(O)c3ccc(c(Cl)c3)Oc3cc2cc(c3OC2OC(CO)C(O)C(O)C2OC2CC(C)(N)C(O)C(C)O2)Oc2ccc(cc2Cl)C1O (stereo not drawn) ... 64

Asked: Recorded MIC-fold improvement vs. vancomycin for `CN[C@H](CC(C)C)C(=O)N[C@H]1C(=O)N[C@@H](CC(N)=O)C(=O)N[C@H]2C(=O)N[C@H]3C(=O)N[C@H](C(=O)N[C@H](C(=O)NCC(=O)Nc4ccc(NS(=O)(=O)c5ccccc5)cc4)c4cc(O)cc(O)c4-c4cc3ccc4O)[C@H](O)c3ccc(c(Cl)c3)Oc3cc2cc(c3O[C@@H]2O[C@H](CO)[C@@H](O)[C@H](O)[C@H]2O[C@H]2C[C@](C)(N)[C@H](O)[C@H](C)O2)Oc2ccc(cc2Cl)[C@H]1O` , please?
Given back: 256

Asked: Recorded MIC-fold improvement vs. vancomycin for CNC(CC(C)C)C(=O)NC1C(=O)NC(CC(N)=O)C(=O)NC2C(=O)NC3C(=O)NC(C(=O)NC(C(=O)NCC(=O)Nc4ccc(-c5ccc(Cl)cc5)cc4)c4cc(O)cc(O)c4-c4cc3ccc4O)C(O)c3ccc(c(Cl)c3)Oc3cc2cc(c3OC2OC(CO)C(O)C(O)C2OC2CC(C)(N)C(O)C(C)O2)Oc2ccc(cc2Cl)C1O (stereo not drawn) , please?
Given back: 128
